Assay: Toxicity liver stage against HepG2, at 10uM
Format: cell-based
Design: test concentration 10 uM, cell line HepG2-A16-CD81EGFP
Conditions: human, HepG2-A16-CD81EGFP cells; read-out: INHIBITION
measurement-label: cytotoxicity at 10 µM (%)
Reply numerically in %, unit not repeated.

Look over these answered cases.
NC(=O)NCC1CCCCN1C(=O)c1ccc(Br)s1 (stereo unspecified): -0.147
c1csc(CN2CCCC3(COCCN(Cc4c[nH]nn4)C3)C2)c1 (stereo unspecified): 5.1
CCn1c(N)nc2cc(C(=O)N3CC(c4ccccn4)C3)cnc21: -14.8
COc1ccc(-c2cc(C3CCCNC3)ccn2)cc1 (stereo unspecified): 0.288

Indicate the recorded cytotoxicity at 10 µM value for this compound: "Cc1csc(CNC(=O)Nc2cc(C(F)(F)F)c[nH]c2=O)n1"
-13.7

# return recorded cytotoxicity at 10 µM for entry "CC(C)N1CC2(CCC1=O)CCN(C(=O)c1cc(F)ccc1Cl)CC2"
0.247

The values you see were collected from ChEMBL document CHEMBL4513216.
